tested on: EBC-1; assay: relative viability (nuclei count vs DMSO), 5 days (fraction); higher = more cells survive; details: first compound 0.8 µM
result-type: relative viability

[Q] For O=c1[nH]c2ccccc2n1C1CCN(CCCC(c2ccc(F)cc2)c2ccc(F)cc2)CC1 [Pimozide] + CC1(C)CCC(c2ccc(Cl)cc2)=C(CN2CCN(c3ccc(C(=O)NS(=O)(=O)c4ccc(N[C@H](CCN5CCOCC5)CSc5ccccc5)c(S(=O)(=O)C(F)(F)F)c4)cc3)CC2)C1 [Navitoclax] (partner 0.5 µM) , what is its reported relative viability?
[A] 0.367

[Q] For O=c1[nH]c2ccccc2n1C1CCN(CCCC(c2ccc(F)cc2)c2ccc(F)cc2)CC1 [Pimozide] + Cc1nc(NC(=O)N2CCC[C@H]2C(N)=O)sc1-c1ccnc(C(C)(C)C(F)(F)F)c1 [Alpelisib] (partner 2 µM) , what is its reported relative viability?
[A] 0.823

[Q] For O=c1[nH]c2ccccc2n1C1CCN(CCCC(c2ccc(F)cc2)c2ccc(F)cc2)CC1 [Pimozide] + C[C@@H](Oc1cc(-c2cnn(C3CCNCC3)c2)cnc1N)c1c(Cl)ccc(F)c1Cl [Crizotinib] (partner 1 µM) , what is its reported relative viability?
[A] 0.199

[Q] For Cc1cnc(-c2cnc(NCCNc3ccc(C#N)cn3)nc2-c2ccc(Cl)cc2Cl)[nH]1 + COc1cc2c(Oc3ccc(NC(=O)C4(C(=O)Nc5ccc(F)cc5)CC4)cc3F)ccnc2cc1OCCCN1CCOCC1 [Foretinib] (partner 0.25 µM) , what is its reported relative viability?
[A] 0.102

----------
tested on: NCI-H1915; experiment: relative viability (nuclei count vs DMSO), 5 days (fraction); higher = more cells survive; conditions: first compound 15.81 µM
result-type: relative viability
Give only the figure.

[Q] For O=C(O)CCCCC(CCSCc1ccccc1)SCc1ccccc1 (centres undefined) [CPI-613] + N=C(N)NC(=N)NCCc1ccccc1 [Phenformin] (partner 250 µM) , what is its reported relative viability?
[A] 0.372

[Q] For O=C(O)CCCCC(CCSCc1ccccc1)SCc1ccccc1 (centres undefined) [CPI-613] + NC(=O)Nc1cc(-c2cccc(F)c2)sc1C(=O)N[C@H]1CCCNC1 [AZD7762] (partner 0.2 µM) , what is its reported relative viability?
[A] 0.639

[Q] For O=C(O)CCCCC(CCSCc1ccccc1)SCc1ccccc1 (centres undefined) [CPI-613] + Cc1cc(Nc2cc(N3CCN(C)CC3)nc(Sc3ccc(NC(=O)C4CC4)cc3)n2)n[nH]1 [Tozasertib] (partner 0.1 µM) , what is its reported relative viability?
[A] 0.4

[Q] For O=C(O)CCCCC(CCSCc1ccccc1)SCc1ccccc1 (centres undefined) [CPI-613] + O=C(CCCCCCC(=O)Nc1ccccc1)NO [Vorinostat] (partner 1 µM) , what is its reported relative viability?
[A] 0.54

----------
system: LU99A; test: relative viability (nuclei count vs DMSO), 5 days (fraction); higher = more cells survive; conditions: first compound 500 µM
Provide the recorded relative viability for the entries that follow.
Give only the figure.

[Q] For O=C(O)CCCCC(CCSCc1ccccc1)SCc1ccccc1 (configuration not stated) [CPI-613] + CC(=O)Nc1cccc(-n2c(=O)n(C3CC3)c(=O)c3c(Nc4ccc(I)cc4F)n(C)c(=O)c(C)c32)c1 [Trametinib] (partner 0.02 µM) , what is its reported relative viability?
[A] 0.357

[Q] For O=C(O)CCCCC(CCSCc1ccccc1)SCc1ccccc1 (configuration not stated) [CPI-613] + Cc1nc(NC(=O)N2CCC[C@H]2C(N)=O)sc1-c1ccnc(C(C)(C)C(F)(F)F)c1 [Alpelisib] (partner 2 µM) , what is its reported relative viability?
[A] 0.0551

[Q] For O=C(O)CCCCC(CCSCc1ccccc1)SCc1ccccc1 (configuration not stated) [CPI-613] + Nc1ncn([C@H]2C[C@H](O)[C@@H](CO)O2)c(=O)n1 [Decitabine] (partner 2 µM) , what is its reported relative viability?
[A] 0.219

[Q] For O=C(O)CCCCC(CCSCc1ccccc1)SCc1ccccc1 (configuration not stated) [CPI-613] + N=C(N)NC(=N)NCCc1ccccc1 [Phenformin] (partner 250 µM) , what is its reported relative viability?
[A] 0.0986

[Q] For O=C(O)CCCCC(CCSCc1ccccc1)SCc1ccccc1 (configuration not stated) [CPI-613] + Cc1nc(Nc2ncc(C(=O)Nc3c(C)cccc3Cl)s2)cc(N2CCN(CCO)CC2)n1 [Dasatinib] (partner 0.075 µM) , what is its reported relative viability?
[A] 0.0381

[Q] For O=C(O)CCCCC(CCSCc1ccccc1)SCc1ccccc1 (configuration not stated) [CPI-613] + CCNC(=O)c1noc(-c2cc(C(C)C)c(O)cc2O)c1-c1ccc(CN2CCOCC2)cc1 [Luminespib] (partner 0.01 µM) , what is its reported relative viability?
[A] 0.115

[Q] For O=C(O)CCCCC(CCSCc1ccccc1)SCc1ccccc1 (configuration not stated) [CPI-613] + CC1(C)CCC(c2ccc(Cl)cc2)=C(CN2CCN(c3ccc(C(=O)NS(=O)(=O)c4ccc(N[C@H](CCN5CCOCC5)CSc5ccccc5)c(S(=O)(=O)C(F)(F)F)c4)cc3)CC2)C1 [Navitoclax] (partner 0.5 µM) , what is its reported relative viability?
[A] 0.0335

----------
system: RERF-LC-KJ; test: relative viability (nuclei count vs DMSO), 5 days (fraction); higher = more cells survive; conditions: first compound 0.05 µM
Provide the recorded relative viability for the entries that follow.
Give only the figure.

[Q] For Nc1ccn([C@@H]2O[C@H](CO)[C@@H](O)[C@@H]2O)c(=O)n1 [Cytarabine] + CC(=O)Nc1cccc(-n2c(=O)n(C3CC3)c(=O)c3c(Nc4ccc(I)cc4F)n(C)c(=O)c(C)c32)c1 [Trametinib] (partner 0.02 µM) , what is its reported relative viability?
[A] 0.716

[Q] For Nc1ccn([C@@H]2O[C@H](CO)[C@@H](O)[C@@H]2O)c(=O)n1 [Cytarabine] + COc1cccc2cc(-c3nc([C@H]4CC[C@H](C(=O)O)CC4)n4ncnc(N)c34)[nH]c12 [OSI-027] (partner 0.5 µM) , what is its reported relative viability?
[A] 0.5

[Q] For Nc1ccn([C@@H]2O[C@H](CO)[C@@H](O)[C@@H]2O)c(=O)n1 [Cytarabine] + Nc1ncn([C@H]2C[C@H](O)[C@@H](CO)O2)c(=O)n1 [Decitabine] (partner 2 µM) , what is its reported relative viability?
[A] 0.475

----------
Provide the recorded relative viability for the entries that follow.
test system: NCI-H1666; assay: relative viability (nuclei count vs DMSO), 5 days (fraction); higher = more cells survive; conditions: first compound 0.5 µM
Give only the figure.

[Q] Requested read-out relative viability, target or system NCI-H1666, entry Nc1ccn([C@@H]2O[C@H](CO)[C@@H](O)[C@@H]2O)c(=O)n1 [Cytarabine] + CC(=O)c1c(C)c2cnc(Nc3ccc(N4CCNCC4)cn3)nc2n(C2CCCC2)c1=O [Palbociclib] (partner 0.5 µM)
[A] 0.575

[Q] Requested read-out relative viability, target or system NCI-H1666, entry COc1cc2nccc(Oc3ccc(NC(=O)Nc4cc(C)on4)c(Cl)c3)c2cc1OC [Tivozanib] + Cc1cc(Nc2cc(N3CCN(C)CC3)nc(Sc3ccc(NC(=O)C4CC4)cc3)n2)n[nH]1 [Tozasertib] (partner 0.1 µM)
[A] 0.646

[Q] Requested read-out relative viability, target or system NCI-H1666, entry COc1cc2nccc(Oc3ccc(NC(=O)Nc4cc(C)on4)c(Cl)c3)c2cc1OC [Tivozanib] + CCNC(=O)c1noc(-c2cc(C(C)C)c(O)cc2O)c1-c1ccc(CN2CCOCC2)cc1 [Luminespib] (partner 0.01 µM)
[A] 1

[Q] Requested read-out relative viability, target or system NCI-H1666, entry COc1cc2nccc(Oc3ccc(NC(=O)Nc4cc(C)on4)c(Cl)c3)c2cc1OC [Tivozanib] + NC(=O)Nc1cc(-c2cccc(F)c2)sc1C(=O)N[C@H]1CCCNC1 [AZD7762] (partner 0.2 µM)
[A] 0.845

----------
system: NCI-H3122; assay: relative viability (nuclei count vs DMSO), 5 days (fraction); higher = more cells survive; conditions: first compound 0.006325 µM
Provide the recorded relative viability for the entries that follow.

[Q] For CC(=O)O[C@@]12CO[C@@H]1C[C@H](O)[C@@]1(C)C(=O)[C@H](O)C3=C(C)[C@@H](OC(=O)[C@H](O)[C@@H](NC(=O)OC(C)(C)C)c4ccccc4)C[C@@](O)([C@@H](OC(=O)c4ccccc4)[C@H]21)C3(C)C [Docetaxel] + CS(=O)(=O)N1CCN(Cc2cc3nc(-c4cccc5[nH]ncc45)nc(N4CCOCC4)c3s2)CC1 [Pictilisib] (partner 1 µM) , what is its reported relative viability?
[A] 0.217

[Q] For CC(=O)O[C@@]12CO[C@@H]1C[C@H](O)[C@@]1(C)C(=O)[C@H](O)C3=C(C)[C@@H](OC(=O)[C@H](O)[C@@H](NC(=O)OC(C)(C)C)c4ccccc4)C[C@@](O)([C@@H](OC(=O)c4ccccc4)[C@H]21)C3(C)C [Docetaxel] + CC(=O)Nc1cccc(-n2c(=O)n(C3CC3)c(=O)c3c(Nc4ccc(I)cc4F)n(C)c(=O)c(C)c32)c1 [Trametinib] (partner 0.02 µM) , what is its reported relative viability?
[A] 0.194

[Q] For CC(=O)O[C@@]12CO[C@@H]1C[C@H](O)[C@@]1(C)C(=O)[C@H](O)C3=C(C)[C@@H](OC(=O)[C@H](O)[C@@H](NC(=O)OC(C)(C)C)c4ccccc4)C[C@@](O)([C@@H](OC(=O)c4ccccc4)[C@H]21)C3(C)C [Docetaxel] + CC1(C)CCC(c2ccc(Cl)cc2)=C(CN2CCN(c3ccc(C(=O)NS(=O)(=O)c4ccc(N[C@H](CCN5CCOCC5)CSc5ccccc5)c(S(=O)(=O)C(F)(F)F)c4)cc3)CC2)C1 [Navitoclax] (partner 0.5 µM) , what is its reported relative viability?
[A] 0.376

[Q] For CC(=O)O[C@@]12CO[C@@H]1C[C@H](O)[C@@]1(C)C(=O)[C@H](O)C3=C(C)[C@@H](OC(=O)[C@H](O)[C@@H](NC(=O)OC(C)(C)C)c4ccccc4)C[C@@](O)([C@@H](OC(=O)c4ccccc4)[C@H]21)C3(C)C [Docetaxel] + CCNC(=O)c1noc(-c2cc(C(C)C)c(O)cc2O)c1-c1ccc(CN2CCOCC2)cc1 [Luminespib] (partner 0.01 µM) , what is its reported relative viability?
[A] 0.0883

[Q] For CC(=O)O[C@@]12CO[C@@H]1C[C@H](O)[C@@]1(C)C(=O)[C@H](O)C3=C(C)[C@@H](OC(=O)[C@H](O)[C@@H](NC(=O)OC(C)(C)C)c4ccccc4)C[C@@](O)([C@@H](OC(=O)c4ccccc4)[C@H]21)C3(C)C [Docetaxel] + CC(C)C[C@H](NC(=O)[C@H](Cc1ccccc1)NC(=O)c1cnccn1)B(O)O [Bortezomib] (partner 0.002 µM) , what is its reported relative viability?
[A] 0.368
